# TARGET_OR_TEST_SYSTEM: trypsin (derived from bovine pancreas) (Bos taurus, UniProt P00760)
# Construct: from tissue; host or cells: bovine pancreas
# Sequence (P00760 24-246): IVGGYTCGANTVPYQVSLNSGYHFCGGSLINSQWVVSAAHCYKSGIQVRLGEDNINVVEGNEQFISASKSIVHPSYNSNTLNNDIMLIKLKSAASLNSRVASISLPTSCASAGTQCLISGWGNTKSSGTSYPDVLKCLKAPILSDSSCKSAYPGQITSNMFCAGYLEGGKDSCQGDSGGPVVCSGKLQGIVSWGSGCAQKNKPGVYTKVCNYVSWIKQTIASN
# ASSAY_DETAILS: Inhibitory activity on trypsin
# Assay type: biochemical
# MEASUREMENT_PARAMETERS: pH8.0, preincubated one minute at 30° C., BAPNA substrate, 30 min, absorbance at 405 nm
Where a name gives a salt, the structure may show the parent alone.
EXPERIMENTAL_ENDPOINT: IC50 (nM)

{"COMPOUND": "CCOC(=O)CN(C(=O)/C=C/c1ccc(C(=O)Oc2ccc(C(=N)N)cc2)cc1)c1ccccc1", "TARGET_OR_TEST_SYSTEM": "trypsin (derived from bovine pancreas) (Bos taurus, UniProt P00760)", "MEASUREMENT_UNIT": "nM", "IC50": 140}
{"COMPOUND": "CCOC(=O)CN(Cc1ccccc1)C(=O)/C(C)=C/c1ccc(C(=O)Oc2ccc(C(=N)N)cc2)cc1 [Example 1, hydrochloride]", "TARGET_OR_TEST_SYSTEM": "trypsin (derived from bovine pancreas) (Bos taurus, UniProt P00760)", "MEASUREMENT_UNIT": "nM", "IC50": 140}
{"COMPOUND": "CCOC(=O)CN(C(=O)c1ccc(C(=O)Oc2ccc(C(=N)N)cc2C(=O)OC)cc1)c1ccccc1 [1(p), acetate]", "TARGET_OR_TEST_SYSTEM": "trypsin (derived from bovine pancreas) (Bos taurus, UniProt P00760)", "MEASUREMENT_UNIT": "nM", "IC50": 150}
{"COMPOUND": "C=CCN(CC(=O)O)C(=O)/C(C)=C/c1ccc(C(=O)Oc2ccc(C(=N)N)cc2)cc1 [Example 4, methanesulfonate]", "TARGET_OR_TEST_SYSTEM": "trypsin (derived from bovine pancreas) (Bos taurus, UniProt P00760)", "MEASUREMENT_UNIT": "nM", "IC50": 100}
{"COMPOUND": "N=C(N)c1ccc(OC(=O)c2ccc(C(=O)N3CCC[C@@H]3C(=O)OCc3ccccc3)cc2)cc1", "TARGET_OR_TEST_SYSTEM": "trypsin (derived from bovine pancreas) (Bos taurus, UniProt P00760)", "MEASUREMENT_UNIT": "nM", "IC50": 140}

---

As an illustration, consider measured pIC50 for molecules on PLA2 (derived from hog pancreas) (Sus scrofa).
Sequence (P00592 23-146): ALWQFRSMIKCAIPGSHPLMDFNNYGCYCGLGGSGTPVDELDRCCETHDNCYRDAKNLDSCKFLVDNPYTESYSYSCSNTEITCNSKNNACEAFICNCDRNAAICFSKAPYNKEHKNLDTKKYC
pIC50: −log10 of the molar value. Counter-ions that a name gives are not always drawn.
EXPERIMENTAL_ENDPOINT: pIC50

{"MOLECULE": "CCOC(=O)CN(Cc1ccccc1)C(=O)/C(C)=C/c1ccc(C(=O)Oc2ccc(C(=N)N)cc2)cc1 [Example 1, hydrochloride]", "pIC50": 5.32}

I = CCOC(=O)CN(C(=O)/C=C(\C)c1ccc(C(=O)Oc2ccc(C(=N)N)cc2)cc1)c1ccccc1 [1(k)]
II = CCOC(=O)CN(C(=O)/C(C)=C/c1ccc(C(=O)Oc2ccc(C(=N)N)cc2)cc1)c1ccc(F)cc1 [1(g)]
Enquiry: Please state the entry with greater pIC50 among I and II . Bench note: the answer is the label of the chosen record.
Return: I
(I: 5.51, II: 5.28)

The measurements presented in this section are drawn from patent US5614555A.
